Biological target: Histone deacetylase (Rattus norvegicus) (UniProt Q6P6W3+Q99P99+Q99P96+Q4QQW4+Q99P97+Q5RJZ2+B1WBY8)
Details: at 0.01 µM
Description: Inhibition of isolated rat liver HDAC using substrate containing acetylated lysine side chain assessed as release of fluorophore at 0.01 uM by Fluor de Lys assay

{"Chemical smiles": "COc1ccc(CC(=O)Nc2ccc3oc(C(=O)NO)cc3c2)cc1", "inhibition": "< 20%"}
{"Chemical smiles": "COCc1ccc(C(=O)NCc2ccc3cc(C(=O)NO)sc3c2F)o1", "inhibition": "23%"}
{"Chemical smiles": "O=C(NO)c1cc2ccc(CN(CCO)Cc3ccccc3)c(F)c2s1", "inhibition": "< 20%"}
{"Chemical smiles": "O=C(NCc1ccc2cc(C(=O)NO)oc2c1)c1ccco1", "inhibition": "< 20%"}
{"Chemical smiles": "COc1ccc(C(=O)NCc2ccc3cc(C(=O)NO)sc3c2F)cc1", "inhibition": "39%"}
{"Chemical smiles": "CN(C)c1ccc(C(=O)NCc2ccc3cc(C(=O)NO)sc3c2F)cc1", "inhibition": "< 20%"}
{"Chemical smiles": "O=C(NCc1ccc2cc(C(=O)NO)sc2c1F)c1ccco1", "inhibition": "39%"}
{"Chemical smiles": "O=C(NO)c1cc2ccc(CN3CCc4ccccc4C3)c(F)c2s1", "inhibition": "< 20%"}
{"Chemical smiles": "COc1ccccc1C(=O)NCc1ccc2cc(C(=O)NO)sc2c1F", "inhibition": "< 20%"}

* * *

Target: Histone deacetylase (Rattus norvegicus) (UniProt Q6P6W3+Q99P99+Q99P96+Q4QQW4+Q99P97+Q5RJZ2+B1WBY8)
Conditions: at 0.1 µM
Description: Inhibition of isolated rat liver HDAC using substrate containing acetylated lysine side chain assessed as release of fluorophore at 0.1 uM by Fluor de Lys assay

{"Chemical smiles": "O=C(NCc1ccc2cc(C(=O)NO)sc2c1F)c1ccccc1", "inhibition": "64%"}
{"Chemical smiles": "Cc1ncoc1C(=O)NCc1ccc2cc(C(=O)NO)sc2c1F", "inhibition": "61%"}
{"Chemical smiles": "O=C(NCc1ccc2cc(C(=O)NO)sc2c1F)c1ccco1", "inhibition": "78%"}
{"Chemical smiles": "Cc1ccc(C(=O)NCc2ccc3cc(C(=O)NO)sc3c2F)s1", "inhibition": "80%"}
{"Chemical smiles": "CN(C)c1ccc(C(=O)NCc2ccc3cc(C(=O)NO)sc3c2F)cc1", "inhibition": "61%"}
{"Chemical smiles": "O=C(Cc1ccccc1)Nc1ccc2oc(C(=O)NO)cc2c1", "inhibition": "41%"}
{"Chemical smiles": "COc1cccc(CC(=O)Nc2ccc3oc(C(=O)NO)cc3c2)c1", "inhibition": "32%"}
{"Chemical smiles": "O=C(NCc1ccc2cc(C(=O)NO)sc2c1F)c1ccc[nH]1", "inhibition": "76%"}
{"Chemical smiles": "COc1ccccc1C(=O)NCc1ccc2cc(C(=O)NO)sc2c1F", "inhibition": "56%"}
{"Chemical smiles": "O=C(NCc1ccc2oc(C(=O)NO)cc2c1)c1ccccc1", "inhibition": "49%"}
{"Chemical smiles": "CN(C)CCCC(=O)Nc1ccc2oc(C(=O)NO)cc2c1", "inhibition": "26%"}

* * *

Biological target: Histone deacetylase (Rattus norvegicus) (UniProt Q6P6W3+Q99P99+Q99P96+Q4QQW4+Q99P97+Q5RJZ2+B1WBY8)
Conditions: at 0.1 µM
# reported inhibition; entries follow

{"Chemical smiles": "CN(C)c1ccc(CC(=O)Nc2ccc3oc(C(=O)NO)cc3c2)cc1", "inhibition (%)": 34}
{"Chemical smiles": "COc1ccc(CC(=O)Nc2ccc3oc(C(=O)NO)cc3c2)cc1", "inhibition (%)": 42}
{"Chemical smiles": "O=C(NO)c1cc2ccc(CN3CCc4ccccc4C3)c(F)c2s1", "inhibition (%)": 45}
{"Chemical smiles": "COCc1ccc(C(=O)NCc2ccc3cc(C(=O)NO)sc3c2F)o1", "inhibition (%)": 67}
{"Chemical smiles": "O=C(NCc1ccc2oc(C(=O)NO)cc2c1)c1ccco1", "inhibition (%)": 45}
{"Chemical smiles": "O=C(NO)c1cc2ccc(CN(CCO)Cc3ccccc3)c(F)c2s1", "inhibition (%)": 48}
{"Chemical smiles": "COc1ccc(C(=O)NCc2ccc3cc(C(=O)NO)sc3c2F)cc1", "inhibition (%)": 78}
{"Chemical smiles": "O=C(NCc1ccc2cc(C(=O)NO)oc2c1)c1ccco1", "inhibition (%)": 27}
{"Chemical smiles": "Cc1cc(C(=O)NCc2ccc3cc(C(=O)NO)sc3c2F)oc1C", "inhibition (%)": 59}

* * *

Below is a list of entries, each paired with its recorded inhibition value.
Biological target: Histone deacetylase (Rattus norvegicus) (UniProt Q6P6W3+Q99P99+Q99P96+Q4QQW4+Q99P97+Q5RJZ2+B1WBY8)
Conditions: at 0.01 µM

{"Chemical smiles": "Cc1ccc(C(=O)NCc2ccc3cc(C(=O)NO)sc3c2F)s1", "Modifier sign": "=", "inhibition [%]": 41}
{"Chemical smiles": "O=C(NCc1ccc2cc(C(=O)NO)sc2c1F)c1ccccc1", "Modifier sign": "=", "inhibition [%]": 24}
{"Chemical smiles": "O=C(NCc1ccc2oc(C(=O)NO)cc2c1)c1ccco1", "Modifier sign": "<", "inhibition [%]": 20}
{"Chemical smiles": "CN(C)CCCC(=O)Nc1ccc2oc(C(=O)NO)cc2c1", "Modifier sign": "<", "inhibition [%]": 20}
{"Chemical smiles": "O=C(NCc1ccc2cc(C(=O)NO)sc2c1F)c1ccc[nH]1", "Modifier sign": "=", "inhibition [%]": 45}
{"Chemical smiles": "Cc1ncoc1C(=O)NCc1ccc2cc(C(=O)NO)sc2c1F", "Modifier sign": "=", "inhibition [%]": 20}
{"Chemical smiles": "O=C(Cc1ccccc1)Nc1ccc2oc(C(=O)NO)cc2c1", "Modifier sign": "<", "inhibition [%]": 20}
{"Chemical smiles": "CN(C)c1ccc(CC(=O)Nc2ccc3oc(C(=O)NO)cc3c2)cc1", "Modifier sign": "<", "inhibition [%]": 20}
{"Chemical smiles": "COc1cccc(CC(=O)Nc2ccc3oc(C(=O)NO)cc3c2)c1", "Modifier sign": "<", "inhibition [%]": 20}
{"Chemical smiles": "O=C(NCc1ccc2oc(C(=O)NO)cc2c1)c1ccccc1", "Modifier sign": "<", "inhibition [%]": 20}
{"Chemical smiles": "Cc1cc(C(=O)NCc2ccc3cc(C(=O)NO)sc3c2F)oc1C", "Modifier sign": "=", "inhibition [%]": 21}
